Reference source: patent US12024503B2

Reported pIC50 by item:
target: JAK2V617F (Homo sapiens, UniProt O60674, V617F)
Construct: purchased Carna Biosciences
Sequence (O60674 whole entry V617F): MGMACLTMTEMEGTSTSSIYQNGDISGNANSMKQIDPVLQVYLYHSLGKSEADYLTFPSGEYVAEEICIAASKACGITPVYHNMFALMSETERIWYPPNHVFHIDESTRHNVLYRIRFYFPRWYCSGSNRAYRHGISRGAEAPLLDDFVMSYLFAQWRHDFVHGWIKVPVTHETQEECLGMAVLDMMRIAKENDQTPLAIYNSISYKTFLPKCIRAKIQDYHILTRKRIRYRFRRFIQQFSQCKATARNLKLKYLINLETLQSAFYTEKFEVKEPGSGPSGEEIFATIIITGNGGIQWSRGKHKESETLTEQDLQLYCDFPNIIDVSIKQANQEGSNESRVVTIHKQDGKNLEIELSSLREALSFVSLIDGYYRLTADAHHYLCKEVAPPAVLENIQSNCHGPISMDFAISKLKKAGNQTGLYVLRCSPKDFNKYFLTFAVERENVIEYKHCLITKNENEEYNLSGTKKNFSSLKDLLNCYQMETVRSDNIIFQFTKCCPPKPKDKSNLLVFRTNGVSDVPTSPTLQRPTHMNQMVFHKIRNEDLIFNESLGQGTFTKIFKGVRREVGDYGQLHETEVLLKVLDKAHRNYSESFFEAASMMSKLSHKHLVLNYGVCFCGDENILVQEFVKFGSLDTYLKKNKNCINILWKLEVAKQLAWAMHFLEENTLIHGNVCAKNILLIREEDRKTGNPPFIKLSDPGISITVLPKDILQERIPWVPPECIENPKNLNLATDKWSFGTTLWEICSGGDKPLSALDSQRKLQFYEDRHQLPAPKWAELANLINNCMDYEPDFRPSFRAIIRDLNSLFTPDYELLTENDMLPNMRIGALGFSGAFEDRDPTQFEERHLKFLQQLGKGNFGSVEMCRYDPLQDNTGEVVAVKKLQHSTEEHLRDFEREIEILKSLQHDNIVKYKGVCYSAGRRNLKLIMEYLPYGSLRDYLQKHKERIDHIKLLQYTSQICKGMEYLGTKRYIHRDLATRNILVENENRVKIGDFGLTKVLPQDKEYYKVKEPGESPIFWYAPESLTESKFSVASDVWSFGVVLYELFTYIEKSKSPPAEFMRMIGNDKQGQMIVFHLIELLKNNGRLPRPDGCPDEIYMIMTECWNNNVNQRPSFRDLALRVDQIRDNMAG
test method notes: JAK2V617F microfluidic kinase assay (Caliper EZ Reader II, FAM labeled peptide substrate)
Assay type: biochemical
condition description: (2.5 nM), 1 mM ATP; Table 2; read-out: IC50 J2V617F (2.5 nM) (1 mM ATP)
pIC50: −log10 of the molar value.
parameter measured: pIC50

{"columns": ["compound", "comparison operator", "numeric result"],
 "data": [
  ["N#CC1(COc2ccc(-c3nc(Nc4cnn(C5CC5)c4)ncc3F)cc2F)CC1", "=", 6.95],
  ["Cc1cnc(Nc2cnn(C3CC3)c2)nc1-c1ccc(OCC2(C#N)CC2)nc1", "=", 6.86],
  ["Cc1cnc(Nc2cnn(C3CC3)c2)nc1-c1cc(F)c(OCC2(C#N)CC2)c(F)c1", "=", 6.95],
  ["Cc1cnc(Nc2cnn(C3CC3)c2)nc1-c1ccc(OCC2(C#N)CC2)c(F)c1", ">", 8.90],
  ["N#CC1(COc2ccc(-c3nc(Nc4cnn(C5CCOCC5)c4)ncc3F)cc2F)CC1", "=", 7.25],
  ["CC(C)(C#N)COc1ccc(-c2nc(Nc3cnn(C4CCOCC4)c3)ncc2F)cc1F", "=", 7.49],
  ["N#CC1(COc2ccc(-c3nc(Nc4cnn(C5CC5)c4)ncc3Cl)cc2F)CC1", "=", 8.83],
  ["CC(=O)N1CCC(n2cc(Nc3ncc(C)c(-c4ccc(OCC5(C#N)CC5)c(F)c4)n3)cn2)CC1", ">", 8.90],
  ["Cc1cnc(Nc2cnn(C3CCOCC3)c2)nc1-c1ccc(OCC(C)(C)C#N)cc1", ">", 8.90],
  ["Cc1cnc(Nc2cnn(C3CC3)c2)nc1-c1ccc(OCC2(C#N)CCC2)cc1", "=", 7.55],
  ["Cc1cnc(Nc2cnn(C3CC3)c2)nc1-c1ccc(OCC(C)(C)C#N)cc1", "=", 8.50],
  ["Cc1cnc(Nc2cnn(C3CC3)c2)nc1-c1ccc(N(C)CC2(C#N)CC2)c(F)c1", "=", 8.21],
  ["COCCn1cc(Nc2ncc(C)c(-c3ccc(OCC(C)(C)C#N)c(F)c3)n2)cn1", ">", 8.90],
  ["N#CC1(COc2ccc(-c3nc(Nc4cnn(C5CCOCC5)c4)ncc3Cl)cc2F)CC1", ">", 8.90],
  ["Cc1cnc(Nc2cnn(C3CC3)c2)nc1-c1ccc(OCC(C)(C)C#N)c(F)c1", ">", 8.90],
  ["Cc1cnc(Nc2cnn(C3CCN(C(=O)C4CC4)CC3)c2)nc1-c1ccc(OCC2(C#N)CC2)c(F)c1", ">", 8.90],
  ["Cc1cnc(Nc2cnn(C3CCOCC3)c2)nc1-c1ccc(OC(C)C(C)(C)C#N)cc1 (centres unmarked)", "=", 8.20],
  ["Cc1cnc(Nc2cnn(C3CCN(C)CC3)c2)nc1-c1ccc(OCC(C)(C)C#N)cc1", ">", 8.90],
  ["CC(C)(C#N)COc1ccc(-c2nc(Nc3cnn(C4CCOCC4)c3)ncc2Cl)cc1F", ">", 8.90],
  ["Cc1cnc(Nc2cnn(C3CCOCC3)c2)nc1-c1ccc(OCC2(C#N)CC2)nc1", "=", 6.79],
  ["COCCn1cc(Nc2ncc(C)c(-c3ccc(OCC4(C#N)CC4)c(F)c3)n2)cn1", ">", 8.90],
  ["Cc1cnc(Nc2cnn(C3CCN(C(=O)C4(C)CC4)CC3)c2)nc1-c1ccc(OCC2(C#N)CC2)c(F)c1", ">", 8.90],
  ["Cc1cnc(Nc2cnn(C3CCOCC3)c2)nc1-c1ccc(OCC(C)(C)C#N)c(F)c1", ">", 8.90],
  ["Cc1cnc(Nc2cnn(C3CC3)c2)nc1-c1ccc(OC2CC(C#N)C2)cc1 (centres unmarked)", "=", 6.77],
  ["CC(=O)N1CCC(n2cc(Nc3ncc(C)c(-c4ccc(OCC(C)(C)C#N)c(F)c4)n3)cn2)CC1", ">", 8.90],
  ["Cc1cnc(Nc2cnn(C3CCOCC3)c2)nc1-c1ccc(OCC2(C#N)CC2)c(F)c1", ">", 8.90]
]}
